Data credit: patent US8461107B2

target.desc: HCV genotype 1b (BK) NS3 modified with a R155K mutation (Hepatitis C virus genotype 1b, UniProt P26663, R1181K)
Construct: HCV genotype 1b (BK) NS3 modified with a R155K mutation
protocol.details: HCV NS3 protease time-resolved fluorescence (TRF) assay, NS3 protease 1b R155K Ki activity
condition: HCV genotype 1b (BK) NS3 with R155K mutation; TRF peptide substrate 100 nM; Ki derived from IC50
pKi: −log10 of the molar value.
outcome.measure: pKi

Here's what some known entries look like.
CC[C@@H]1C[C@]1(NC(=O)[C@@H]1C[C@@H]2CN1C(=O)[C@H](C(C)(C)C)NC(=O)O[C@@H]1CCC[C@H]1C/C=C/CCn1c(cc3cc(Cl)ccc3c1=O)O2)C(=O)NS(=O)(=O)C1CC1
9.30 to 10.00
C=C[C@@H]1C[C@]1(NC(=O)[C@@H]1C[C@@H]2CN1C(=O)[C@H](C1CCCC1)NC(=O)O[C@@H]1CCC[C@H]1CC/C=C/Cn1c(nc3cc(Br)ccc3c1=O)O2)C(=O)NS(=O)(=O)C1CC1
> 10.00

input: Quick one: give measured pKi for C=C[C@@H]1C[C@]1(NC(=O)[C@@H]1C[C@@H]2CN1C(=O)[C@H](C1CCCC1)NC(=O)O[C@@H]1CCC[C@H]1CCCCCn1c(ccc(Br)c1=O)O2)C(=O)NS(=O)(=O)C1CC1
output: 9.30 to 10.00
